These data points were gathered from patent US20230233569A1.

Reported IC50 values for a set of compounds
Test Target: KRAS G12C (Homo sapiens, UniProt P01116+P62937, G12C)
Sequence (P01116 1-169 isoform P01116-2 G12C limits assumed): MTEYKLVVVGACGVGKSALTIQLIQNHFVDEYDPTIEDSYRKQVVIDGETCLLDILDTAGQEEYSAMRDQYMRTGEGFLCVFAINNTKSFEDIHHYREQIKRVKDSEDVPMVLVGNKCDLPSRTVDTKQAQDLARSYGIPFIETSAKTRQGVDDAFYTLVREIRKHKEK
Sequence (P62937 whole entry): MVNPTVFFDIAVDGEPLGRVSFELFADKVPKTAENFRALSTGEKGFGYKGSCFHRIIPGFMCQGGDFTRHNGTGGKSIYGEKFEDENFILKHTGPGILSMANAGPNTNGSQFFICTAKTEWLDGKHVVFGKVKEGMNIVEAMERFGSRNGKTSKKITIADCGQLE
Assay Procedure: Ras-Raf disruption / FRET / MOA assay (BRAF RBD)
Format: biochemical
Measurement Context: KRAS G12C FRET data IC50, Ras-Raf disruption, with Cyclophilin A

{"Compound": "CCn1c(-c2cccnc2[C@H](C)OC)c2c3cc(ccc31)-c1cc(O)cc(c1)C[C@H](NC(=O)[C@H](C(C)C)N1CC[C@@H](NC(=O)[C@@H]3CN3)C1=O)C(=O)N1CCC[C@H](N1)C(=O)OCC(C)(C)C2 [Example 129]", "IC50": "10 to 100 nM"}
{"Compound": "CCn1c(-c2cccnc2[C@H](C)OC)c2c3cc(ccc31)-c1cc(O)cc(c1)C[C@H](NC(=O)[C@H](C(C)C)N(C)C(=O)CN(C)C(=O)[C@H]1CN1CCO)C(=O)N1CCC[C@H](N1)C(=O)OCC(C)(C)C2 (stereo partly shown) [Example 161]", "IC50": "< 10 nM"}
{"Compound": "CCn1c(-c2cccnc2[C@H](C)OC)c2c3cc(ccc31)-c1cc(cc(C(F)F)c1)C[C@H](NC(=O)[C@H](C1CCCC1)N(C)C(=O)CN(C)C(=O)[C@@H]1N[C@@H]1C1CC1)C(=O)N1CCC[C@H](N1)C(=O)OCC(C)(C)C2 [Example 320]", "IC50": "100 to 1000 nM"}
{"Compound": "CCn1c(-c2cccnc2[C@H](C)OC)c2c3cc(ccc31)-c1cc(O)cc(c1)C[C@H](NC(=O)[C@H](C(C)C)N(C)C(=O)[C@H]1CCCN1C(=O)[C@@H]1CN1)C(=O)N1CCC[C@H](N1)C(=O)OCC(C)(C)C2 [Example 151]", "IC50": "< 10 nM"}
{"Compound": "CCn1c(-c2cccnc2[C@H](C)OC)c2c3cc(ccc31)-c1cc(O)cc(c1)C[C@H](NC(=O)[C@H](C(C)C)N(C)C(=O)CN(C)C(=O)[C@@H]1CN1CC1(C)COC1)C(=O)N1CCC[C@H](N1)C(=O)OCC(C)(C)C2 (stereo partly shown) [Example 280]", "IC50": "< 10 nM"}
{"Compound": "CCn1c(-c2cccnc2[C@H](C)OC)c2c3cc(ccc31)-c1cc(O)cc(c1)C[C@H](NC(=O)[C@H](C(C)C)N(C)C(=O)CNC(=O)[C@@H]1N[C@@H]1C1CC1)C(=O)N1CCC[C@H](N1)C(=O)OCC(C)(C)C2 [Example 141]", "IC50": "10 to 100 nM"}
{"Compound": "CCn1c(-c2cccnc2[C@H](C)OC)c2c3cc(ccc31)-c1cc(O)cc(c1)C[C@H](NC(=O)[C@H](C(C)C)N(C)C(=O)CN(C)C(=O)[C@@H]1N[C@@H]1C1CC1)C(=O)N1CCC[C@H](N1)C(=O)OCC(C)(C)C2 [Example 133]", "IC50": "10 to 100 nM"}

====

Test Target: KRAS G13D (Homo sapiens, UniProt P01116+P62937, G13D)
Sequence (P01116 1-169 isoform P01116-2 G13D limits assumed): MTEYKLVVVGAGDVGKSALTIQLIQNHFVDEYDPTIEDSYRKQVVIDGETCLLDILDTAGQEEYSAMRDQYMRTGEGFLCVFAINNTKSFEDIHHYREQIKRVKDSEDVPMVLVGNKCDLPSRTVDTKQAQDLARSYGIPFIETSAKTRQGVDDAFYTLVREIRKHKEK
Sequence (P62937 whole entry): as the sequence (P62937 whole entry) above
Assay Procedure: Ras-Raf disruption / FRET / MOA assay (BRAF RBD)
Format: biochemical
Measurement Context: KRAS G13D FRET data IC50, Ras-Raf disruption, with Cyclophilin A
Excerpt: Disruption of […] Ras-binding Domain (BRAF^RBD) Interaction with K-Ras by Compounds of the Invention (also Called a FRET Assay or an MOA Assay) Note—The following protocol describes a procedure for monitoring disruption of K-Ras G12C (GMP-PNP) binding to BRAF^RBD by a compound of the invention. This protocol may also be executed substituting other Ras proteins or nucleotides, such as K-Ras G12D and K-Ras G13D. […]
Reported IC50 by item:
Observation Type: IC50

{"Molecule": "CCn1c(-c2cccnc2[C@H](C)OC)c2c3cc(ccc31)-c1cc(O)cc(c1)C[C@H](NC(=O)[C@H](C(C)C)N(C)C(=O)CN(C)C(=O)C1CN1CCOC)C(=O)N1CCC[C@H](N1)C(=O)OCC(C)(C)C2 (some centres unmarked)", "Observed Value": "0.1 to 1 µM"}
{"Molecule": "CCn1c(-c2cccnc2[C@H](C)OC)c2c3cc(ccc31)-c1cc(O)cc(c1)C[C@H](NC(=O)[C@H](C(C)C)N(C)C(=O)CN(C)C(=O)[C@@H]1N[C@@H]1C1COC1)C(=O)N1CCC[C@H](N1)C(=O)OCC(C)(C)C2", "Observed Value": "0.01 to 0.1 µM"}
{"Molecule": "CCn1c(-c2cccnc2[C@H](C)OC)c2c3cc(ccc31)-c1cc(O)cc(c1)C[C@H](NC(=O)[C@H](C(C)C)N(C)C(=O)CN(C)C(=O)[C@]1(C)CN1)C(=O)N1CCC[C@H](N1)C(=O)OCC(C)(C)C2", "Observed Value": "0.01 to 0.1 µM"}
{"Molecule": "CCn1c(-c2cccnc2[C@H](C)OC)c2c3cc(ccc31)-c1cc(O)cc(c1)C[C@H](NC(=O)[C@H](C1CCCC1)N(C)C(=O)CN(C)C(=O)[C@H]1N[C@H]1C1(C#N)CC1)C(=O)N1CCC[C@H](N1)C(=O)OCC(C)(C)C2", "Observed Value": "0.01 to 0.1 µM"}
{"Molecule": "CCn1c(-c2cccnc2[C@H](C)OC)c2c3cc(ccc31)-c1cc(O)cc(c1)C[C@H](NC(=O)[C@H](C1CCCC1)N(C)C(=O)CN(C)C(=O)[C@H]1[C@@H](C3CC3)N1CCCOC)C(=O)N1CCC[C@H](N1)C(=O)OCC(C)(C)C2 (some centres unmarked)", "Observed Value": "0.1 to 1 µM"}

====

Test Target: NRAS Q61R (Homo sapiens, UniProt P01111+P62937, Q61R)
Sequence (P01111 whole entry Q61R, one chain of several): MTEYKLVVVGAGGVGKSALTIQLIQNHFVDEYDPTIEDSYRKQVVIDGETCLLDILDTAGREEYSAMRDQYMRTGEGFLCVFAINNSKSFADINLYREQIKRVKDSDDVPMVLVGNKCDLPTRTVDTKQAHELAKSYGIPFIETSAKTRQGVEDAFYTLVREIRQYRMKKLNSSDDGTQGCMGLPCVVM
Assay Procedure: Disruption of BRAF RBD interaction with Ras (FRET / MOA assay, with Cyclophilin A)
Type: biochemical
Measurement Context: NRAS Q61R; read-out: NRAS Q61R FRET data IC50
Entries and their measured IC50 follow.

{"Compound": "C=CC(=O)N1CC[C@H](C(=O)N(C)[C@H](C(=O)N[C@H]2Cc3cc(O)cc(c3)-c3cnc4c(c3)c(c(-c3ccccc3CCOC)n4CC)CC(C)(C)COC(=O)[C@@H]3CCCN(N3)C2=O)C(C)C)C1 [Example A210]", "IC50": "> 10000 nM"}
{"Compound": "C=CC(=O)N1CC[C@H](C(=O)N(C)[C@H](C(=O)N[C@H]2Cc3cc(O)cc(c3)-c3ccc4c(c3)c(c(C3=C(COC)CCCC3)n4CC)CC(C)(C)COC(=O)[C@@H]3CCCN(N3)C2=O)C(C)C)C1 [Example A064]", "IC50": "1000 to 10000 nM"}
{"Compound": "CCn1c(-c2cccnc2[C@H](C)OC)c2c3cc(ccc31)-c1csc(n1)C[C@H](NC(=O)[C@H](C(C)C)N(C)C(=O)N(C)C)C(=O)N1CCC[C@H](N1)C(=O)OCC(C)(C)C2 (racemic) [Example A136]", "IC50": "10 to 100 nM"}
{"Compound": "CCn1c(-c2cccnc2[C@H](C)OC)c2c3cc(ccc31)-c1cc(O)cc(c1)C[C@H](NC(=O)[C@H](C(C)C)N(C)C(=O)C1CCC(C3CCCO3)O1)C(=O)N1CCC[C@H](N1)C(=O)OCC(C)(C)C2 (stereo partly drawn) [Example A396]", "IC50": "10 to 100 nM"}
{"Compound": "CCn1c(-c2cc(N3CCN(C)CC3)cnc2[C@H](C)OC)c2c3cc(ccc31)-c1csc(n1)C[C@H](NC(=O)[C@H](C(C)C)N(C)C(=O)N1CC(N(C)C)C1)C(=O)N1CCC[C@H](N1)C(=O)OCC(C)(C)C2 (atropisomer, axis not shown) [Example A477]", "IC50": "10 to 100 nM"}
{"Compound": "CCn1c(-c2cccnc2[C@H](C)OC)c2c3cc(ccc31)N1CCO[C@@H](C[C@H](NC(=O)[C@H](C(C)C)N(C)C(=O)[C@@]3(F)CCN(C(=O)C#CC(C)(C)N4CCC4)C3)C(=O)N3CCC[C@H](N3)C(=O)OCC(C)(C)C2)C1 [Example A726]", "IC50": "> 10000 nM"}

====

Test system: NCI-H358 (K-Ras G12C)
Assay Procedure: CellTiter-Glo cell viability assay, 5-day treatment
Type: cell-based
Measurement Context: Homo sapiens, NCI-H358, 120 h, 5-day treatment; read-out: H358 Cell Viability assay data (K-Ras G12C, IC50)
pIC50: −log10 of the molar value.

{"Compound": "CCn1c(-c2cccnc2[C@H](C)OC)c2c3cc(ccc31)-c1cc(O)cc(c1)C[C@H](NC(=O)[C@H](C(C)C)N(C)C(=O)[C@H]1CCC[C@H]1N)C(=O)N1CCC[C@H](N1)C(=O)OCC(C)(C)C2 (atropisomer, axis not shown)", "pIC50": "7.00 to 8.00"}
{"Compound": "CCn1c(-c2cccnc2[C@H](C)OC)c2c3cc(ccc31)-c1csc(n1)C[C@H](NC(=O)[C@H](C(C)C)N(C)C(=O)N1CCC(C(=O)C(F)(F)F)CC1)C(=O)N1CCC[C@H](N1)C(=O)OCC(C)(C)C2", "pIC50": "7.00 to 8.00"}
{"Compound": "CCn1c(-c2cccnc2[C@H](C)OC)c2c3cc(ccc31)-c1cc(O)cc(c1)C[C@H](NC(=O)[C@H](C(C)C)N(C)C(=O)[C@H]1CC1(F)F)C(=O)N1CCC[C@H](N1)C(=O)OCC(C)(C)C2", "pIC50": "6.00 to 7.00"}
{"Compound": "CCn1c(-c2cnccc2COC)c2c3cc(ccc31)-c1cc(O)cc(c1)C[C@H](NC(=O)[C@H](C(C)C)N(C)C(=O)[C@H]1CCN(C(=O)N(C)C)C1)C(=O)N1CCC[C@H](N1)C(=O)OCC(C)(C)C2", "pIC50": "5.00 to 6.00"}
{"Compound": "CCn1c(-c2cccnc2[C@H](C)OC)c2c3cc(ccc31)-c1cc(O)cc(c1)C[C@H](NC(=O)[C@H](C(C)C)N(C)C(=O)[C@H]1CCCNC1)C(=O)N1CCC[C@H](N1)C(=O)OCC(C)(C)C2", "pIC50": "6.00 to 7.00"}
{"Compound": "CCn1c(-c2cc(N3CCN(C)CC3)cnc2[C@H](C)OC)c2c3cc(ccc31)-c1cc(O)cc(c1)C[C@H](NC(=O)[C@H](C1CCCC1)N(C)C(=O)[C@H]1OCC[C@H]1c1ccccc1)C(=O)N1CCC[C@H](N1)C(=O)OCC(C)(C)C2", "pIC50": "6.00 to 7.00"}
{"Compound": "CCN1CC(C(=O)N(C)[C@H](C(=O)N[C@H]2Cc3cc(O)cc(c3)-c3ccc4c(c3)c(c(-c3cccnc3[C@H](C)OC)n4CC)CC(C)(C)COC(=O)[C@@H]3CCCN(N3)C2=O)C(C)C)CC1=O (stereo partly drawn)", "pIC50": "7.00 to 8.00"}
{"Compound": "CCn1c(-c2cnccc2COC)c2c3cc(ccc31)-c1cc(O)cc(c1)C[C@H](NC(=O)[C@H](C(C)C)N(C)C(=O)[C@H]1CCN(C)C1)C(=O)N1CCC[C@H](N1)C(=O)OCC(C)(C)C2", "pIC50": "5.00 to 6.00"}
{"Compound": "CCN1C[C@@H](C(=O)N(C)[C@H](C(=O)N[C@H]2Cc3cc(O)cc(c3)-c3ccc4c(c3)c(c(-c3cnccc3COC)n4CC)CC(C)(C)COC(=O)[C@@H]3CCCN(N3)C2=O)C(C)C)CC1=O", "pIC50": "5.00 to 6.00"}
